Notes on pIC50 obtained with Cytochrome P450 2C9 (Homo sapiens, UniProt P11712).
Sequence (P11712 whole entry): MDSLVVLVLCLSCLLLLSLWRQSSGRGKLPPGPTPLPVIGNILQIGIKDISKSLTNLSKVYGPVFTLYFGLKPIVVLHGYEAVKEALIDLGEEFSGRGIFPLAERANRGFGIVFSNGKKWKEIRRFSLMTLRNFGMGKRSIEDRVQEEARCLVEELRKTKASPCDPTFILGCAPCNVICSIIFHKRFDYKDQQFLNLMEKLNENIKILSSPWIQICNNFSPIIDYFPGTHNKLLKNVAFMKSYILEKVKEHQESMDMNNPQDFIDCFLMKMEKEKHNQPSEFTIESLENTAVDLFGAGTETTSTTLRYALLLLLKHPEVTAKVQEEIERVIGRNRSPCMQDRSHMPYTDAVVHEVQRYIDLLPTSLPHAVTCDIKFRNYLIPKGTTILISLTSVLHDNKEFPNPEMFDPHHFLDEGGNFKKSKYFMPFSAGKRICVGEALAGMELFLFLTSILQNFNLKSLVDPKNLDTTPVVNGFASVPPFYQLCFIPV
pIC50: −log10 of the molar value.

INSERT INTO assay_data (compound, measured_parameter, reported_result) VALUES
  ('CC(C)(C)NC(=O)N1CCC2(CC1)CC2CNC(=O)N1Cc2ccncc2C1 (racemic)', 'pIC50', '< 5.00'),
  ('CC(C)CNC(=O)c1cc2cnccc2[nH]1', 'pIC50', '< 5.00'),
  ('CC(C)(C)OC(=O)N1CCC2(CC1)CC2CNC(=O)c1cc2ccncc2o1 (racemic)', 'pIC50', '< 5.00'),
  ('CC(C)(C)OC(=O)N1CCC2(CC1)CC2CNC(=O)c1cc2cnccc2[nH]1 (racemic)', 'pIC50', '< 5.00'),
  ('O=C(NCc1ccccc1)c1cc2cnccc2[nH]1', 'pIC50', '< 5.00');

Would you kindly look at the next entry?
May I ask what pIC50 has been recorded for CC1(CC(=O)N2CCC3(CC2)CC3CNC(=O)N2Cc3ccncc3C2)CCOCC1 (racemic) ? < 5.00
